# ASSAY SUMMARY: Oral bioavailability in mouse at 50 mg/kg and 25 mg/kg, iv and measured upto 24 hrs
# Assay type: ADME, organism-based
# RECORDED CONDITIONS: in vivo
MEASUREMENT KIND: bioavailability (%)

In [3]: df
Out[3]:
                      smiles_representation  value_unit  value
0  CN1CCN(C(=O)c2ccc(-c3nn4c(-c5ccc(C#N)cc5)cnc4s3)cc2)CC1           %   60.9

###

# ASSAY SUMMARY: Half life in mouse at 50 mg/kg, po and measured upto 24 hrs
# Format: ADME, organism-based
# RECORDED CONDITIONS: in vivo
MEASUREMENT KIND: half-life

                      smiles_representation  measurement_kind   value
0  CN1CCN(C(=O)c2ccc(-c3nn4c(-c5ccc(C#N)cc5)cnc4s3)cc2)CC1         half-life  4.42 h
